Data credit: ChEMBL document CHEMBL1121986

target: UniProt P16116; test: Inhibitory concentration was determined against partially purified calf lens aldose reductase using glyceraldehyde as a substrate
# Lookup of reported pIC50 keyed by entry
Answer as the number alone; pIC50 is minus log10 of concentration in mol/L.

These solved cases illustrate the format of a correct answer.
{"columns": ["COMPOUND", "ASSAY_READOUT", "OBSERVED_MEASUREMENT"],
 "data": [
  ["O=C1NC(=O)C2(CCSc3ccccc32)O1 (stereo not drawn)", "pIC50", 5.00],
  ["O=C1NC(=O)C2(CCc3ccccc32)O1 (stereo not drawn)", "pIC50", 4.00],
  ["O=C1NC(=O)C2(CCOc3ccc(Br)cc32)O1 (stereo not drawn)", "pIC50", 6.00],
  ["O=C1NC(=O)C2(CCOc3ccccc32)O1 (stereo not drawn)", "pIC50", 4.00],
  ["O=C1NC(=O)C2(CCCc3ccccc32)O1 (stereo not drawn)", "pIC50", 4.00]
]}

pIC50 in this record for O=C1N=C(O)OC12CCOc1c(Cl)cc(Cl)cc12 (single isomer, unassigned; (+)) : 4.00

pIC50 in this record for O=C1NC(=O)C2(CCSc3ccc(F)cc32)O1 (stereo not drawn) : 5.00

pIC50 in this record for O=C1N=C(O)OC12CCOc1ccc(Cl)cc12 (single isomer, unassigned; (-)) : 6.00

* * *

biological target: UniProtKB P16116; experiment: Inhibitory concentration was determined against partially purified calf lens aldose reductase using glyceraldehyde as a substrate; 10e-7/10e-8
ASSAY_READOUT: pIC50
Answer as the number alone; pIC50 is minus log10 of concentration in mol/L.

pIC50 in this record for O=C1NC(=O)C2(CCOc3c(Cl)cc(Cl)cc32)O1 (stereo in doubt; 14) : 6.00

* * *

biological target: Aldo-keto reductase family 1 member B1 (Bos taurus); assay: Inhibitory concentration was determined against partially purified calf lens aldose reductase using glyceraldehyde as a substrate; 10e-4/10e-5
ASSAY_READOUT: pIC50
Answer as the number alone; pIC50 is minus log10 of concentration in mol/L.

pIC50 in this record for O=C1N=C(O)OC12CCOc1ccc(Cl)cc12 (single isomer, unassigned; (+)) : 3.00
